Provenance of the data: the RNAGym collection of RNA variant scans (doi:10.1073/pnas.2313332121)

B1: TPR t1 (parent)
chain: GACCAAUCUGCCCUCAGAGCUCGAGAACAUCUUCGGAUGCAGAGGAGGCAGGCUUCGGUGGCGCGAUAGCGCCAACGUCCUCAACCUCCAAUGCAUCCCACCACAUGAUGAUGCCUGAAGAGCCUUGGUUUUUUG

- Variants of: B1
- Procedure details: polymerase ribozyme fitness, log enrichment relative to wild type (log ratio); higher = more active; in vitro selection for triplet polymerase activity
Recorded metric: polymerase ribozyme fitness (log ratio)
Please reply with the value in numeric form only.

See these solved cases before continuing.
{"columns": ["Changes", "polymerase ribozyme fitness (log ratio)"],
 "data": [
  ["G71U C86A", -2.02],
  ["A5U G45C G60A", -0.71],
  ["C15A G48U A50G C97U", -4.67],
  ["A6U U9C", 0.514],
  ["C28A U132C", -4.37]
]}

QUERY: Input U9C C34U C56G G77A U106A G113A A121G , output reported polymerase ribozyme fitness (log ratio).
RESULT: -3.53

QUERY: Determine from records and report polymerase ribozyme fitness (log ratio) for C73U U81A
RESULT: -3.27

QUERY: Read the entry G17A G36U and write its reported polymerase ribozyme fitness (log ratio).
RESULT: -3.69

QUERY: Give me measured polymerase ribozyme fitness (log ratio), please, for this variant: G48A G60U
RESULT: -0.531

QUERY: Supply recorded polymerase ribozyme fitness (log ratio) for A37G C64U C73G U109A here.
RESULT: -6.41

QUERY: Dear colleague, please send me the reported polymerase ribozyme fitness (log ratio) for U21C C124U when you can.
RESULT: 1.84

QUERY: Return the recorded polymerase ribozyme fitness (log ratio) value; entry: U7G C64U C97U G107A U112A
RESULT: -5.51

QUERY: Item U9A A37U : provide polymerase ribozyme fitness (log ratio)
RESULT: 0.568

QUERY: Kindly indicate its recorded polymerase ribozyme fitness (log ratio). Item: C11A C15A A37G C40A G120U
RESULT: -6.11
